Cited source for all entries: PubChem BioAssay AID1899

# Test system: HCV core protein (residues 1-106) dimerization
# TEST SUMMARY: blockers of core106 self-association – biochemical, TR-FRET, high-throughput, primary screen (AID 1899)
# RECORDED CONDITIONS: TR-FRET GST/Flag-core106 dimerization, 1536-well; at 5 µM; hits give high values
The campaign covered roughly 300,000 compounds. About 1,000 (0.33%) were called active. The entries come from a sample that favours actives as a whole.
Entries and their inhibition
Response body: numeric value in %, unit text excluded.

[
  {
    "SMILES STRING": "CCNC(=O)c1sccc1-n1cccc1",
    "STUDY TARGET": "HCV core protein (residues 1-106) dimerization",
    "inhibition [%]": 0.55
  }
]

Entry `CCOC(=O)/C=c1\s/c(=C\c2ccc(C#N)cc2)c(=O)n1CC(=O)Nc1cccc(C)c1C` — recorded inhibition = 11.6

Documented inhibition of `O=C(O)CSc1nccn1-c1cccc(Cl)c1` : -3.31

---

# Tested on: HCV core protein (residues 1-106) dimerization
# TEST SUMMARY: blockers of core106 self-association – biochemical, TR-FRET, high-throughput, primary screen (AID 1899)
# RECORDED CONDITIONS: TR-FRET GST/Flag-core106 dimerization, 1536-well; at 5 µM; hits give high values
Hit rate of the full screen: of about 300,000 compounds, about 1,000 (0.33%) were called active. Only a selection was taken, and actives are over-represented in it overall.
PROPERTY: inhibition (%)
Number only, in %; omit the unit.

Examples with answers:
[
  {
    "COMPOUND": "C=CCn1c(C)cc(C2=NNC(=NCC)SC2)c1C",
    "inhibition (%)": -4.1
  },
  {
    "COMPOUND": "CC(=O)c1ccc(S(=O)(=O)N2CCN(C(=O)/C=C/c3ccc4ccccc4n3)CC2)cc1",
    "inhibition (%)": 34.5
  },
  {
    "COMPOUND": "CCc1ccc(NC(=O)CN2C(=O)CSC2=O)cc1",
    "inhibition (%)": -2.17
  },
  {
    "COMPOUND": "O=c1cc(CN2CCN(S(=O)(=O)/C=C/c3ccccc3)CC2)c2ccc(O)cc2o1",
    "inhibition (%)": 52.2
  },
  {
    "COMPOUND": "CCOC(=O)c1c(C)[nH]c(C2=NNC(=NC(C)COC)SC2)c1C (stereo not given)",
    "inhibition (%)": -2.46
  },
  {
    "COMPOUND": "CCOc1ccccc1/C=c1\\sc2nc(-c3ccco3)nn2c1=O",
    "inhibition (%)": 62.2
  },
  {
    "COMPOUND": "Cc1cc(C2=NNC(=Nc3ccc(S(=O)(=O)N4CCOCC4)cc3)SC2)c(C)n1CC1CCCO1 (stereo not given)",
    "inhibition (%)": 55.5
  },
  {
    "COMPOUND": "O=c1nc2s/c(=C\\c3ccco3)c(=O)n2nc1Cc1ccccc1",
    "inhibition (%)": 22.3
  },
  {
    "COMPOUND": "CC(=O)c1ccc(S(=O)(=O)N2CCC3(CC2)OCCO3)cc1",
    "inhibition (%)": -8.35
  }
]

Query compound follows.
So for CC(C)c1ccccc1OCC(O)CN(CC(O)COc1cccc2ccccc12)C(C)C (stereo not given) , the logged inhibition turned out to be -10.3
